system_tested: PLK1 (Homo sapiens)
Construct: endogenous in cells; host or cells: HeLa
measurement_protocol: PLK1 protein degradation in HeLa cells, Western blotting (PLK1/GAPDH ratio)
Type: cell-based
condition_notes: thymidine block and release, 6 hours compound incubation, 10 points three-fold from 3 μM, PLK1 to GAPDH ratio, read-out: Dmax
quantity: Dmax

COc1cc(C(=O)NC2CCN(CCOCCOCCOCCOCCOCCNc3cccc4c3C(=O)N(C3CCC(=O)NC3=O)C4=O)CC2)c(F)cc1Nc1ncc2c(n1)N(C1CCCC1)CC(F)(F)C(=O)N2C (stereo not drawn) [Compound 5] | ≥ 80%
COc1cc(C(=O)NC2CCN(CC(=O)NCCOCCNc3cccc4c3C(=O)N(C3CCC(=O)NC3=O)C4=O)CC2)c(F)cc1Nc1ncc2c(n1)N(C1CCCC1)CC(F)(F)C(=O)N2C (stereo not drawn) [Compound 35] | ≥ 80%

Switching to the query record.
The compound listed as COc1cc(C(=O)NCC2CCCCN2CCOCCNc2cccc3c2C(=O)N(C2CCC(=O)NC2=O)C3=O)c(F)cc1Nc1ncc2c(n1)N(C1CCCC1)CC(F)(F)C(=O)N2C (stereo not drawn) [Compound 126] has a reported Dmax of 60 to 80%

###

system_tested: PLK1 (Homo sapiens, UniProt P53350)
Construct: endogenous in cells; host or cells: HeLa
Sequence (P53350 whole entry): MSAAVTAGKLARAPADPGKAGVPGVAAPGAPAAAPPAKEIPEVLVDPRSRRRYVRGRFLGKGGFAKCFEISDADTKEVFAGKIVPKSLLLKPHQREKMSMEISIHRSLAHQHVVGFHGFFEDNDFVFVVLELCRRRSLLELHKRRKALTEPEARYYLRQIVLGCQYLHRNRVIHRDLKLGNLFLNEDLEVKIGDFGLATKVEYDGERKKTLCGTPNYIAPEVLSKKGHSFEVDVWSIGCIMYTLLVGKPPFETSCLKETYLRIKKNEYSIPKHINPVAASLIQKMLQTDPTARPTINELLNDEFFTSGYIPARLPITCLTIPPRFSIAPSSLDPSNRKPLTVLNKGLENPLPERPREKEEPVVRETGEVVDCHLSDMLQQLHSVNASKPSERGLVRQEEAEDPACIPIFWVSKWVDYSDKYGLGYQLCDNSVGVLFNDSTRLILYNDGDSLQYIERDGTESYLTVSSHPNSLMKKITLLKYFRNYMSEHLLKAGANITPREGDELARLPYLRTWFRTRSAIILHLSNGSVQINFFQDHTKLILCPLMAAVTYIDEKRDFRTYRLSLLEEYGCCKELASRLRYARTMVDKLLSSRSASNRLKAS
measurement_protocol: PLK1 protein degradation in HeLa cells, Western blotting (PLK1/GAPDH ratio)
Assay type: cell-based
condition_notes: thymidine block and release, 6 hours compound incubation, 10 points three-fold from 3 μM, PLK1 to GAPDH ratio, read-out: Dmax
quantity: Dmax

Previously resolved entries follow.
COc1cc(C(=O)NC2CCN(CCOCCOCCOCCNc3cccc4c3C(=O)N(C3CCC(=O)NC3=O)C4=O)CC2)c(F)cc1Nc1ncc2c(n1)N(C1CCCC1)CC(F)(F)C(=O)N2C (centres unmarked) | ≥ 80%
COc1cc(C(=O)NC2CCN(CCOCCOCC(=O)Nc3cccc4c3C(=O)N(C3CCC(=O)NC3=O)C4=O)CC2)c(F)cc1Nc1ncc2c(n1)N(C1CCCC1)CC(F)(F)C(=O)N2C (centres unmarked) | < 60%
COc1cc(C(=O)NC2CCN(CCOCCOCCNc3cccc4c3C(=O)N(C3CCC(=O)NC3=O)C4=O)CC2)c(F)cc1Nc1ncc2c(n1)N(C1CCCC1)CC(F)(F)C(=O)N2C (centres unmarked) | ≥ 80%
COc1cc(C(=O)NC2CCN(CCCOCCCOCCCOCCNc3cccc4c3C(=O)N(C3CCC(=O)NC3=O)C4=O)CC2)c(F)cc1Nc1ncc2c(n1)N(C1CCCC1)CC(F)(F)C(=O)N2C (centres unmarked) | ≥ 80%

Now let's try a different one.
Lookup result for "COc1cc(C(=O)NC2CCN(CCOCCOCCOCCOc3cc(-c4scnc4C)ccc3CNC(=O)[C@@H]3C[C@@H](O)CN3C(=O)[C@@H](NC(=O)C3(F)CC3)C(C)(C)C)CC2)c(F)cc1Nc1ncc2c(n1)N(C1CCCC1)CC(F)(F)C(=O)N2C" ; measured Dmax: < 60%

###

system_tested: PLK1 (Homo sapiens, UniProt P53350)
Construct: endogenous in cells; host or cells: HeLa
measurement_protocol: PLK1 protein degradation in HeLa cells, Western blotting (PLK1/GAPDH ratio)
Type: cell-based
condition_notes: thymidine block and release, 6 hours compound incubation, 10 points three-fold from 3 μM, PLK1 to GAPDH ratio, read-out: Dmax
quantity: Dmax

Here's what some known entries look like.
COc1cc(C(=O)NC2CCN(CC3CCN(c4ccc5c(c4)C(=O)N(C4CCC(=O)NC4=O)C5=O)CC3)CC2)c(F)cc1Nc1ncc2c(n1)N(C1CCCC1)CC(F)(F)C(=O)N2C (stereo not drawn) | 60 to 80%
COc1cc(C(=O)N[C@H]2CCN(C(=O)CCC(=O)N3CC4(C3)CN(c3cccc5c3C(=O)N(C3CCC(=O)NC3=O)C5=O)C4)C2)c(F)cc1Nc1ncc2c(n1)N(C1CCCC1)CC(F)(F)C(=O)N2C (stereo partly drawn) | ≥ 80%

Attention now shifts to the item below.
Field Dmax (system: PLK1 (Homo sapiens, UniProt P53350)) for entry COc1cc(C(=O)NC2CCN(CCOCCOCC#Cc3cccc4c3C(=O)N(C3CCC(=O)NC3=O)C4=O)CC2)c(F)cc1Nc1ncc2c(n1)N(C1CCCC1)CC(F)(F)C(=O)N2C (stereo not drawn) = 60 to 80%

###

system_tested: PLK1 (Homo sapiens)
Construct: endogenous in cells; host or cells: HeLa
measurement_protocol: PLK1 protein degradation in HeLa cells, Western blotting (PLK1/GAPDH ratio)
Assay type: cell-based
condition_notes: 6 hours compound incubation, measured only if the grade of Dmax is A or B
Listing: DC50 of selected compounds

Solved cases below.
COc1cc(C(=O)NC2CCN(Cc3ccc(OCCNc4cccc5c4C(=O)N(C4CCC(=O)NC4=O)C5=O)cc3)CC2)c(F)cc1Nc1ncc2c(n1)N(C1CCCC1)CC(F)(F)C(=O)N2C (centres unmarked) | ≤ 500 nM
COc1cc(C(=O)NC2CCN(CCCCCCCNc3cccc4c3C(=O)N(C3CCC(=O)NC3=O)C4=O)CC2)c(F)cc1Nc1ncc2c(n1)N(C1CCCC1)CC(F)(F)C(=O)N2C (centres unmarked) | ≤ 500 nM
COc1cc(C(=O)NC2CCN(C(=O)CCCCNc3cccc4c3C(=O)N(C3CCC(=O)NC3=O)C4=O)C2)c(F)cc1Nc1ncc2c(n1)N(C1CCCC1)CC(F)(F)C(=O)N2C (centres unmarked) | ≤ 50 nM
COc1cc(C(=O)NC2CCN(C(=O)COCCOCCOCCOCCNc3cccc4c3C(=O)N(C3CCC(=O)NC3=O)C4=O)CC2)c(F)cc1Nc1ncc2c(n1)N(C1CCCC1)CC(F)(F)C(=O)N2C (centres unmarked) | ≤ 50 nM

Value of measured DC50 for the entry COc1cc(C(=O)NCCOCCOCCOCCNc2cccc3c2C(=O)N(C2CCC(=O)NC2=O)C3=O)c(F)cc1Nc1ncc2c(n1)N(C1CCCC1)CC(F)(F)C(=O)N2C (centres unmarked) : ≤ 50 nM

###

system_tested: PLK1 (Homo sapiens, UniProt P53350)
Construct: endogenous in cells; host or cells: HeLa
measurement_protocol: PLK1 protein degradation in HeLa cells, Western blotting (PLK1/GAPDH ratio)
Type: cell-based
condition_notes: 6 hours compound incubation, measured only if the grade of Dmax is A or B
Listing of recorded DC50 by entry.

Worked set:
COc1cc(C(=O)NC2CCN(CCOCCOCCNc3cccc4c3C(=O)N(C3CCC(=O)NC3=O)C4=O)C2)c(F)cc1Nc1ncc2c(n1)N(C1CCCC1)CC(F)(F)C(=O)N2C (centres unmarked) | ≤ 50 nM
COc1cc(C(=O)N[C@H]2CCN(CCOCCNC(=O)CNc3cccc4c3C(=O)N(C3CCC(=O)NC3=O)C4=O)C2)c(F)cc1Nc1ncc2c(n1)N(C1CCCC1)CC(F)(F)C(=O)N2C (some centres unmarked) | ≤ 500 nM
COc1cc(C(=O)NCCOCCNc2cccc3c2C(=O)N(C2CCC(=O)NC2=O)C3=O)c(F)cc1Nc1ncc2c(n1)N(C1CCCC1)CC(F)(F)C(=O)N2C (centres unmarked) | ≤ 500 nM

// field: DC50; key: CN1C(=O)C(F)(F)CN(C2CCCC2)c2nc(Nc3ccc(C(=O)NC4CCN(C(=O)CCCNc5cccc6c5C(=O)N(C5CCC(=O)NC5=O)C6=O)CC4)cc3)ncc21 (centres unmarked) ; value = ≤ 50 nM

Entry COc1cc(C(=O)NC2CCN(CCCn3cnc(CNc4cccc5c4C(=O)N(C4CCC(=O)NC4=O)C5=O)c3)CC2)c(F)cc1Nc1ncc2c(n1)N(C1CCCC1)CC(F)(F)C(=O)N2C (centres unmarked) , DC50 reported as ≤ 50 nM

###

system_tested: PLK1 (Homo sapiens, UniProt P53350)
Construct: endogenous in cells; host or cells: HeLa
measurement_protocol: PLK1 protein degradation in HeLa cells, Western blotting (PLK1/GAPDH ratio)
Assay type: cell-based
condition_notes: thymidine block and release, 6 hours compound incubation, 10 points three-fold from 3 μM, PLK1 to GAPDH ratio, read-out: Dmax
Excerpt: The HeLa cell line was purchased from Korea Cell Line Bank (KCLB), Seoul, Korea. The passage in cell culture was maintained at P115 to P125. […]
Listed next: entries and their corresponding Dmax.

See these solved cases before continuing.
COc1cc(C(=O)NC2CCN(CCOCCCNc3cccc4c3C(=O)N(C3CCC(=O)NC3=O)C4=O)C2)c(F)cc1Nc1ncc2c(n1)N(C1CCCC1)CC(F)(F)C(=O)N2C (stereo not shown) | ≥ 80%
COc1cc(C(=O)NCCCCCCCCNc2cccc3c2C(=O)N(C2CCC(=O)NC2=O)C3=O)c(F)cc1Nc1ncc2c(n1)N(C1CCCC1)CC(F)(F)C(=O)N2C (stereo not shown) | < 60%
COc1cc(C(=O)NC2CCN(CCCCCCCc3cccc(CNC(=O)COc4cccc5c4C(=O)N(C4CCC(=O)NC4=O)C5=O)c3)CC2)c(F)cc1Nc1ncc2c(n1)N(C1CCCC1)CC(F)(F)C(=O)N2C (stereo not shown) | ≥ 80%

Switching to the query record.
The recorded Dmax for entry COc1cc(C(=O)NC2CCN(CCN3CCN(c4cccc5c4C(=O)N(C4CCC(=O)NC4=O)C5=O)CC3)CC2)c(F)cc1Nc1ncc2c(n1)N(C1CCCC1)CC(F)(F)C(=O)N2C (stereo not shown) equals 60 to 80%

Origin of measurements: patent US20230372498A1
